system_under_test: T1, scHLA-B27-mmH (engineered HLA-B*27 ectodomain in-line fusion protein) (human (HLA-B*2705, beta-2 …))
T1 construct: also called soluble HLA-B*27 fusion protein
protocol: SPR (Biacore), 25 C, PBS pH 5.75
Please respond with reported Kd for every item in the list.
Give bare numbers, in nM.

Look over these answered cases.
1. H4H2560P (antibody, V domains shown) VH: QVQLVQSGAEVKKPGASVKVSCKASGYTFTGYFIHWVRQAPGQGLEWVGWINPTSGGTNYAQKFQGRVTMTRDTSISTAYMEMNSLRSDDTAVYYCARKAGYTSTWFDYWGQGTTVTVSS VL: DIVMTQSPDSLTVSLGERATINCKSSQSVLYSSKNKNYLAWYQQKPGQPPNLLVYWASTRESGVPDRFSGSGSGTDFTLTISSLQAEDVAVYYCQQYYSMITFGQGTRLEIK | 7.7
2. H4H2528P (antibody, V domains shown) VH: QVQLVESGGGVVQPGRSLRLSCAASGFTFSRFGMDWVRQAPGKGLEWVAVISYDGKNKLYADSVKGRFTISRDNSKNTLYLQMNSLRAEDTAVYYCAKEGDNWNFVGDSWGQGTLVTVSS VL: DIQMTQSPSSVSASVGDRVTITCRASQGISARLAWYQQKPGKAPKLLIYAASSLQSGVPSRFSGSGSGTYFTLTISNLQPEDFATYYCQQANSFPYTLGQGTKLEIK | 2.74

// next entry
Req: Which Kd is listed for H4H2534S (antibody, V domains shown) VH: EVQLVESGPGLVKPAQTLSLTCTVSGGSINSGGNYWSWIRQHPGKGLEWIGYIYYSGNTYYNPSLKSRVTISVDMSKNQFSLKLRSVTAADTAVYFCARDPRGITGTHHFDCWGQGTLVTVSS VL: EIVLTQSPGTLSLSPGERATLSCRTSQSVSSRYLAWYQQKPGQAPRLLIYDASSRATGIPDRFSGSGSGTDFTLTISRLEPEDFAVYYCQQFGPSLFTFGPGTKVDIK ?
Resp: 53.4
